Attribution: patent US20240270821A1

The binders listed here are annotated with their cAMP Rel EC50 (1% HSA).
# tested on: human glucagon receptor (human) (UniProt P47871)
# Sequence (P47871 26-477): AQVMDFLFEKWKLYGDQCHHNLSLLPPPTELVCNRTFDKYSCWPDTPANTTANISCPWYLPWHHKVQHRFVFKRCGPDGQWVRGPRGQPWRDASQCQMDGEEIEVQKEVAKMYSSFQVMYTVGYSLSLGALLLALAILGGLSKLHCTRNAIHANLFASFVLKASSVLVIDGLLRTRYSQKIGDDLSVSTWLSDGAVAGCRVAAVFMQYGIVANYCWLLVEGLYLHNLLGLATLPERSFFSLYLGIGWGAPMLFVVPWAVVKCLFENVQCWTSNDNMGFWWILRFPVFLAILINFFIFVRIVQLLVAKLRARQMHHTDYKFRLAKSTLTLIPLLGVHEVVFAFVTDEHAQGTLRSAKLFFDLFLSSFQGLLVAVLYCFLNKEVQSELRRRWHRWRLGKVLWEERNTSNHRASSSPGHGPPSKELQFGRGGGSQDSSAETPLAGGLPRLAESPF
# assay overview: cell-based or functional assay

binder	cAMP Rel EC50 (1% HSA), nM
YXQGTXTSDXSIXLDXKAAXAFIEXLLEGGPSSGEPPPS (synthetic construct; SITE 2: note = 2-Aminoisobutyric Acid; SITE 6: note = alpha-methyl-2-fluoro-L-phenylalanine; SITE 10: note = 3-(4-Pyridyl)-L-alanine; SITE 13: note = alpha-methyl-leucine; SITE 16: note = L-ornithine; SITE 17: note = Lysine is chemically modified through conjugation of the epsil) [Example 1236]	502
YXQGTXTSDXXIXLDXKAQXQFIEXLQEGGPSSGEPPPEGTGE (synthetic construct; SITE 2: note = 2-Aminoisobutyric Acid; SITE 6: note = alpha-methyl-2-fluoro-L-phenylalanine; SITE 10: note = 3-(4-Pyridyl)-L-alanine; SITE 11: note = alpha-methyl-L-serine; SITE 13: note = alpha-methyl-leucine; SITE 16: note = L-ornithine; SITE 17: note = Lysine is chemically mo) [Example 529]	398
YXQGTFTSDXSQXLDKKAQXAFIEYLIEXGPSSGAPPPSEG (non-natural residues; lipidated Lys AEEA-γGlu-C18 diacid; synthetic construct; SITE 2: note = 2-Aminoisobutyric Acid; SITE 10: note = 3-(4-Pyridyl)-L-alanine; SITE 13: note = alpha-methyl-leucine; SITE 17: note = Lysine is chemically modified through conjugation of the epsilon-amino group of the Lysine side chain with (2-[2-(2-Amino-ethoxy)-ethoxy]-acetyl)) [Example 918]	590
YXQGTFTSDXSQXLDXKAQXAFIEXLLEGGPSSGAPPPSGS (acylated Lys AEEA-γGlu-C18 diacid; non-natural residues; C-terminal amide; synthetic construct; SITE 2: note = 2-Aminoisobutyric Acid; SITE 10: note = 3-(4-Pyridyl)-L-alanine; SITE 13: note = alpha-methyl-leucine; SITE 16: note = L-ornithine; SITE 17: note = Lysine is chemically modified through conjugation of the epsilon-amino group of the Lysine side chain with (2-[2-(2-) [Example 911]	2390
YXQGTFTSDXSQXLDKKAQXAFIEYLIEXGPSSGAPPPSGS (Lys acylated γGlu-C18 diacid; non-natural residues; C-amide; synthetic construct; SITE 2: note = 2-Aminoisobutyric Acid; SITE 10: note = 3-(4-Pyridyl)-L-alanine; SITE 13: note = alpha-methyl-leucine; SITE 17: note = Lysine is chemically modified through conjugation of the epsilon-amino group of the Lysine side chain with (gamma-Glu)-(D-Glutamic acid)2-CO-(CH2)) [Example 922]	1170
YXQGTFTSDXSQXLDXKAQXAFIEXLIAXGPSSGEPPPSGSEE (non-natural residues (Aib, 4Pal, Orn, Me4Pal, αMeY); lipidated K; amide; synthetic construct; SITE 2: note = 2-Aminoisobutyric Acid; SITE 10: note = 3-(4-Pyridyl)-L-alanine; SITE 13: note = alpha-methyl-leucine; SITE 16: note = L-ornithine; SITE 17: note = Lysine is chemically modified through conjugation of the epsilon-amino group of the Lysine side chain with (gamma-Gl)) [Example 1094]	831
